Assay: unspecified inhibition readout at 50 µM (AID 740)
Settings: unspecified screen
The campaign covered roughly 96,000 compounds. About 65 (0.07%) were called active. Rule as the data show it: active = inhibition above about 25%; inactive = the rest. The sample as a whole holds a higher share of actives than the screen did.
Possible outcomes: active, inactive

compound	class-assignment
O=C(CSc1nnc(Cc2ccccc2)n1Cc1ccco1)NC1CCCC1	inactive
NC(=O)C1(N2CCCCC2)CCN(C(=O)CSc2nc(C(F)(F)F)cc(=O)[nH]2)CC1	inactive
Cc1ccc(NC(=O)C2CCN(S(=O)(=O)c3cccs3)CC2)cc1C	inactive
O=C(c1cnn2c(C(F)(F)F)cc(-c3ccc(Br)cc3)nc12)N1CCOCC1	inactive
COc1ccccc1NC(=O)c1cc(C(=O)O)ccc1C(=O)O	inactive
Cc1cc(C)n(S(=O)(=O)/C=C/c2ccccc2)n1	active
NC(=S)NNc1cccc(Cl)c1	inactive
COc1ccc(C2NC(=O)NC3=C2CCc2ccccc23)cc1 (stereo unspecified)	active
COc1ccc(NC(=O)CN2CCCC(C)C2)c([N+](=O)[O-])c1 (stereo unspecified)	inactive
Nc1nc(SCc2ccccc2)[nH]c(=O)c1-c1ccccc1	inactive
NC(=O)c1c(NC(=O)CSc2nnc(-c3ccco3)n2-c2ccccc2)sc2c1CCC2	inactive
COc1ccc(C2C3=C(N=C4SCC(=O)N42)c2ccccc2CC3)cc1 (stereo unspecified)	inactive
O=C1Cc2ccccc2C(c2ccc(Br)cc2)N1 (stereo unspecified)	inactive
CCC(CC)c1nnc(NC(=O)CN2C(=O)C3C4C=CC(C4)C3C2=O)s1 (stereo unspecified)	inactive
CCOC(=O)CSc1nnc(C2CCCCC2)n1C	inactive
CN1CCN(S(=O)(=O)c2ccc(NC(=O)Cc3cccs3)cc2)CC1	inactive
Cc1ccc(C2NC(=O)NC3=C2CCc2ccccc23)cc1 (stereo unspecified)	active
C=CCN(c1ccc(C(=O)N2CCCC2)cc1)S(C)(=O)=O	inactive
O=C(NCc1cccs1)c1ccc(N2CCCCC2)nc1	active
COc1ccc(S(=O)(=O)Nc2ccc(C)cc2)cc1N(C)S(=O)(=O)c1ccc(Cl)cc1	inactive
CC(C)c1ccc(C2NC(=O)NC3=C2CCc2ccccc23)cc1 (stereo unspecified)	inactive
O=c1c2ccccc2nc2c3ccccc3c(NCc3ccco3)nn12	inactive
O=C(c1cnn2c(C(F)(F)F)cc(-c3ccccc3)nc12)N1CCOCC1	active
CC(=O)Nc1sc(C)c(C)c1C(=O)OC1CCOC1=O (stereo unspecified)	inactive
Cc1ccc(C2NC(=O)Cc3ccccc32)cc1 (stereo unspecified)	inactive
CCCCN(CC)CCNc1c(N2CCN(C(=O)OCC)CC2)c(=O)c1=O	inactive
COc1c(N2CCN(C(=S)Nc3ccc(F)cc3)C(C)C2)c(F)cc2c(=O)c(C(=O)O)cn(C3CC3)c12 (stereo unspecified)	inactive
O=C(CCS(=O)(=O)c1cccc2nsnc12)NCc1ccccc1Cl	active
COCCn1c(SCC(=O)Nc2cc(C)cc(C)c2)nnc1C(C)C	inactive
CNC(=O)c1ccc(Oc2ccc(C(=O)NC)cc2)cc1	inactive
N#Cc1ccc2ccn(CC(=O)NC3CCCCC3)c2c1	inactive
Cc1ccc2nc(SCC(=O)Nc3c(C)n(C)n(-c4ccccc4)c3=O)[nH]c2c1	inactive
COc1ccc(C2NC(=S)NC3=C2CCc2cc(OC)ccc23)cc1 (stereo unspecified)	inactive
CC1CCCN(c2ccc(C(=O)NCc3cccs3)cn2)C1 (stereo unspecified)	inactive
NC(=O)CSc1nnc2sc3ccccc3n12	inactive
CN1CCN(c2nc(-c3ccc(Br)cc3)nnc2-c2ccccc2)CC1	inactive
c1ccc(NC2=Nc3ccccc3CS2)cc1	inactive
CCN1CCN(CC(O)COc2ccc(C(C)=O)cc2)CC1 (stereo unspecified)	inactive
Cc1sc2nc3c4ccccc4c(NCc4ccco4)nn3c(=O)c2c1C	active
CC(C)NC(=O)CSc1nnc2sc3ccccc3n12	active
Cc1ccc(CNC(=O)CCS(=O)(=O)c2cccc3nsnc23)cc1	inactive
CCOC(=O)CC(=O)CSc1nnc2sc3ccccc3n12	inactive
O=C1NC2=C(CCc3ccccc32)C(c2ccc(Br)cc2)N1 (stereo unspecified)	active
COc1ccc(Br)cc1C(=O)Nc1ccc(N2CCN(S(C)(=O)=O)CC2)cc1	inactive
Cc1cc(Oc2ccc(C#N)cc2)nc(N2CCOCC2)n1	inactive
CC(C)(C)c1ccc(S(=O)(=O)n2c(CN3CCOCC3)nc3ccccc32)cc1	inactive

The origin of these recorded values is PubChem BioAssay AID740.
